- measured-on: GAK (amino acids Q25-N335) (Homo sapiens, UniProt O14976)
- Construct: against GAK (amino acids Q25-N335); 6His (N, cleaved yes)
- Sequence (O14976 25-335): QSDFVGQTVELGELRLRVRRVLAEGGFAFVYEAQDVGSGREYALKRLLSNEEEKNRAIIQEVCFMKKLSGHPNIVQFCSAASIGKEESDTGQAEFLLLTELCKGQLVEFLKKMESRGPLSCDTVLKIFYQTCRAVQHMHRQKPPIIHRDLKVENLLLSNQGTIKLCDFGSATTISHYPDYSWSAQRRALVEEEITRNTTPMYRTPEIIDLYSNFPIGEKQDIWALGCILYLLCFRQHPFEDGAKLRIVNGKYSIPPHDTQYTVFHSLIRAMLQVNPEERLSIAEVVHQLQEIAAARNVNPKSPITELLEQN
- method-notes: GAK pSENs assay
- Format: biochemical
- assay-conditions: numeric values; read-out: GAK pSENs:IC50
assay-endpoint: IC50 (nM)
Use nM as the unit, but write only the number.

[Q] Which measured IC50 value corresponds to COc1ncccc1-c1cnn2ccc(N3CCN(C(=O)OC4(C)COC4)CC3)nc12 [RC-1, reference compound] ?
[A] 1050

----------
Examples of molecules with documented pIC50 follow.
- measured-on: AAK1 (amino acids T27-A365) (Homo sapiens, UniProt Q2M2I8)
- Construct: against AAK1 (amino acids T27-A365); 6His (N, cleaved yes)
- Sequence (Q2M2I8 27-365): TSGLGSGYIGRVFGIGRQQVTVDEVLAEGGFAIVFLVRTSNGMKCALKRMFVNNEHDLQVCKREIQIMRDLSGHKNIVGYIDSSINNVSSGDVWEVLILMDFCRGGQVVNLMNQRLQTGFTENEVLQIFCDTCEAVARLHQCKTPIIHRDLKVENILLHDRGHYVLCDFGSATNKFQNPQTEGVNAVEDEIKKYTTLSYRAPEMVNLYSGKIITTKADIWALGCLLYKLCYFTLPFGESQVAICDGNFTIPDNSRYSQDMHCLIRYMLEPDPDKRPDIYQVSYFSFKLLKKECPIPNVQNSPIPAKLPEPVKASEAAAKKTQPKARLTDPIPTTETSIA
- method-notes: AAK1 pSENs assay
- Format: biochemical
- assay-conditions: class symbols; read-out: AAK1 pSENs: EIC50
pIC50: −log10 of the molar value.

Past entries and their recorded results:
[Q] What does the data say about its pIC50? Entry: `C[C@@]1(OC(=O)N2CCN(c3ccn4ncc(-c5cccnc5OC5CC5)c4n3)CC2)CCN(CC(N)=O)C1`
[A] 7.30 to 9.00

[Q] Could you share which pIC50 value was measured for `CN(CCNc1ccn2ncc(-c3cccnc3OC3CC3)c2n1)C(=O)O[C@H]1CO[C@H]2OCC[C@H]21` ?
[A] 7.30 to 9.00

Now for the molecule whose pIC50 we want.
[Q] Which pIC50 value belongs to `CC(C)(C)OC(=O)N1CC(Oc2ncccc2-c2cnn3ccc(N4CCN(C(=O)O[C@@H]5CNC(=O)C5)CC4)nc23)C1` ?
[A] 7.30 to 9.00

----------
IC50 values by entry
- measured-on: AAK1 (Homo sapiens, UniProt Q2M2I8)
- Sequence (Q2M2I8 whole entry): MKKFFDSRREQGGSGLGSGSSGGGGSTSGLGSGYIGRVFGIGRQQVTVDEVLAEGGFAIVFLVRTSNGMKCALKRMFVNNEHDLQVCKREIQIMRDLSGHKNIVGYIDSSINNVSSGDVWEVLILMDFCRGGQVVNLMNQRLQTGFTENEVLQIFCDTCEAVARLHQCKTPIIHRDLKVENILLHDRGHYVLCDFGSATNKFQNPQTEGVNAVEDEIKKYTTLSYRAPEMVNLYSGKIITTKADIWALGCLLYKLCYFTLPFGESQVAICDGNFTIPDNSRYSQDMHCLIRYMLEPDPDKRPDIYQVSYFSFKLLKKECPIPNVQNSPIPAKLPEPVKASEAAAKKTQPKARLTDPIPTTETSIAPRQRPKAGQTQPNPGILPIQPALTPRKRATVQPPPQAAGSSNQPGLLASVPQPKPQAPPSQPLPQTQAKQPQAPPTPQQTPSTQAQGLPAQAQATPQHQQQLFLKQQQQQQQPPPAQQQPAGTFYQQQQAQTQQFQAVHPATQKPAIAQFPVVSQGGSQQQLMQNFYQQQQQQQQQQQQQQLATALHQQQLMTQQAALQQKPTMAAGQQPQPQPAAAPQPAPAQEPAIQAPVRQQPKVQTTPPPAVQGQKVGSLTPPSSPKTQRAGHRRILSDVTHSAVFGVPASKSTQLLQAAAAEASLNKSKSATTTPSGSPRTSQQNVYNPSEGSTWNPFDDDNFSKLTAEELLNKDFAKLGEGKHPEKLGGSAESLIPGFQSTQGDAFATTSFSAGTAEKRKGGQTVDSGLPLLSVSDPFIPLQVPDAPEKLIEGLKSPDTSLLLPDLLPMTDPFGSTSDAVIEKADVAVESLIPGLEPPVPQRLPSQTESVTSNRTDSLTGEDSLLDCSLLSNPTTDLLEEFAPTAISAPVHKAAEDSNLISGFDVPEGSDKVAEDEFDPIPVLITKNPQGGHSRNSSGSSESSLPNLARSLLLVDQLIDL
- method-notes: pAP2M1 cell-based assay (in-cell Western)
- assay-conditions: Hela cells co-transfected with AP2M1 and AAK1, 3 hr treatment; class symbols; read-out: AAK1 In-cell Western: IC50

See these solved cases before continuing.
[Q] Fill in: IC50 of `O=C1C[C@H](OC(=O)N2CCN(c3ccn4ncc(-c5cccnc5NC5CC5)c4n3)CC2)CN1` is ___
[A] > 1500 nM

[Q] Given the entry `CN(CCNc1ccn2ncc(-c3cccnc3OC3CC3)c2n1)C(=O)O[C@]1(C)CCNC1` , report its measured IC50.
[A] 501 to 1500 nM

Others:
[Q] Requested field: IC50. Item: `CN1C[C@@H](OC(=O)N2CCN(c3nc4c(-c5cccnc5OC5CC5)cnn4cc3F)CC2)CC1=O`
[A] 151 to 500 nM

[Q] Which IC50 reading was recorded for the compound `O=C1C[C@H](OC(=O)N[C@H]2CCN(c3ccn4ncc(-c5cccnc5OC5CC5)c4n3)C2)CN1` ?
[A] > 1500 nM

[Q] Entry under review: `CC1(OC(=O)N2CCN(c3ccn4ncc(-c5cccnc5OC5COC5)c4n3)CC2)COC1` . Reported IC50?
[A] 151 to 500 nM

[Q] Need IC50 of `Cc1nn2ccc(N3CCN(C(=O)O[C@H]4CC(=O)N(C)C4)CC3)nc2c1-c1cccnc1OC1CC1` , thanks.
[A] > 1500 nM

[Q] GET /values?readout=IC50&item= `CC(C)(C)OC(=O)N1CCN(c2ccn3ncc(Cl)c3n2)CC1`
[A] > 1500 nM

[Q] Fill in: IC50 of `CC(C)(C)OC(=O)NCCNc1nc2c(-c3cccnc3OC3CC3)cnn2cc1F` is ___
[A] 501 to 1500 nM

[Q] Need IC50 of `CC(C)Oc1ncccc1-c1cnn2ccc(N3CCN(C(=O)O[C@@H]4CNC(=O)C4)CC3)nc12` , thanks.
[A] 501 to 1500 nM

[Q] Entry `COC(=O)N1CC(Oc2ncccc2-c2cnn3ccc(N4CCN(C(=O)O[C@@H]5CC(=O)N(CCOCc6ccccc6)C5)CC4)nc23)C1` has what IC50?
[A] > 1500 nM

[Q] Quick check: IC50 of `CC(C)(C)OC(=O)N1CC(Nc2ncccc2-c2cnn3ccc(N4CCN(C(=O)O[C@@H]5CNC(=O)C5)CC4)nc23)C1` ?
[A] > 1500 nM

[Q] Need IC50, item `C[C@H]1CN(c2ccn3ncc(-c4cccnc4OC4CC4)c3n2)CCN1C(=O)O[C@@H]1CNC(=O)C1`
[A] > 1500 nM

[Q] GET /values?readout=IC50&item= `CN(CCNc1ccn2ncc(-c3cccnc3OC3CC3)c2n1)C(=O)OC(C)(C)C`
[A] 151 to 500 nM

[Q] Consider the compound shown here: `CN1C[C@@H](OC(=O)N2CCN(c3nc4c(-c5cccnc5OC5CCCC5)cnn4cc3F)CC2)CC1=O` What is its recorded IC50?
[A] > 1500 nM
